Here's a batch of molecules along with measured pIC50 for DNA ligase 3 (Homo sapiens, UniProt P49916).
pIC50: −log10 of the molar value.
measured-property: pIC50

[[record]]
smiles_str = "Cc1c(Br)cc(NCC(=O)N/N=C/c2cc([N+](=O)[O-])ccc2O)cc1Br"
measured_property = "pIC50"
reported_value = 5.00

[[record]]
smiles_str = "Nc1nc(S)nc(O)c1/N=C/c1ccccc1"
measured_property = "pIC50"
reported_value = 5.05


* * *

# Tested on: HEK293
# assay-summary: Cytotoxicity against HEK293 cells at 100 uM relative to control
# Format: cell-based
# assay-conditions: human, hek293, 100 µM
Entries and their measured Activity follow.
measured-property: Activity

[[record]]
compound = "CCOC(=O)C1=C(C)NC(=O)NC1c1cc(/C=N/NC(N)=O)c(O)c(C(C)(C)C)c1 (stereo unspecified)"
tested_on = "HEK293"
reported_value = "< 80%"

[[record]]
compound = "CCOC(=O)C1=C(C)NC(=O)NC1c1cc(/C=N/NC(=S)NC)c(O)c(C(C)(C)C)c1 (stereo unspecified)"
tested_on = "HEK293"
reported_value = "> 80%"

[[record]]
compound = "CCOC(=O)C1=C(C)NC(=O)NC1c1cc(/C=N/NC(N)=S)c(O)c(C(C)(C)C)c1 (stereo unspecified)"
tested_on = "HEK293"
reported_value = "> 80%"

[[record]]
compound = "CCOC(=O)C1=C(C)NC(=O)NC1c1cc(/C=N/NC(=S)Nc2ccc(Cl)cc2)c(O)c(C(C)(C)C)c1 (stereo unspecified)"
tested_on = "HEK293"
reported_value = "> 80%"

[[record]]
compound = "CCOC(=O)C1=C(C)NC(=O)NC1c1cc(C)c(O)c(/C=N/NC(=S)NC)c1 (stereo unspecified)"
tested_on = "HEK293"
reported_value = "> 80%"

[[record]]
compound = "CCOC(=O)C1=C(C)NC(=O)NC1c1cc(/C=N/NC(=O)Nc2ccc(Br)cc2)c(O)c(C(C)(C)C)c1 (stereo unspecified)"
tested_on = "HEK293"
reported_value = "> 80%"

[[record]]
compound = "CCOC(=O)C1=C(C)NC(=O)NC1c1cc(C)c(O)c(/C=N/NC(N)=O)c1 (stereo unspecified)"
tested_on = "HEK293"
reported_value = "< 80%"

[[record]]
compound = "CCOC(=O)C1=C(C)NC(=S)NC1c1cc(/C=N/NC(=S)Nc2ccc(C)cc2)c(O)c(C(C)(C)C)c1 (stereo unspecified)"
tested_on = "HEK293"
reported_value = "< 80%"

[[record]]
compound = "CCOC(=O)C1=C(C)NC(=S)NC1c1cc(/C=N/NC(=O)Nc2ccc(Cl)cc2)c(O)c(C(C)(C)C)c1 (stereo unspecified)"
tested_on = "HEK293"
reported_value = "< 80%"

[[record]]
compound = "CCOC(=O)C1=C(C)NC(=S)NC1c1cc(/C=N/NC(=S)Nc2ccccc2)c(O)c(C(C)(C)C)c1 (stereo unspecified)"
tested_on = "HEK293"
reported_value = "< 80%"

[[record]]
compound = "CCOC(=O)C1=C(C)NC(=S)NC1c1cc(/C=N/NC(=S)Nc2ccc(Cl)cc2)c(O)c(C(C)(C)C)c1 (stereo unspecified)"
tested_on = "HEK293"
reported_value = "< 80%"

[[record]]
compound = "CCOC(=O)C1=C(C)NC(=O)NC1c1cc(/C=N/NC(=O)Nc2ccc(F)cc2)c(O)c(C(C)(C)C)c1 (stereo unspecified)"
tested_on = "HEK293"
reported_value = "> 80%"

[[record]]
compound = "CCOC(=O)C1=C(C)NC(=O)NC1c1cc(/C=N/NC(=S)Nc2ccccc2)c(O)c(C(C)(C)C)c1 (stereo unspecified)"
tested_on = "HEK293"
reported_value = "> 80%"

[[record]]
compound = "CCOC(=O)C1=C(C)NC(=S)NC1c1cc(C)c(O)c(/C=N/NC(=O)Nc2ccc(Cl)cc2)c1 (stereo unspecified)"
tested_on = "HEK293"
reported_value = "> 80%"

[[record]]
compound = "CCOC(=O)C1=C(C)NC(=O)NC1c1cc(/C=N/NC(=O)Nc2cccc(OC)c2)c(O)c(C(C)(C)C)c1 (stereo unspecified)"
tested_on = "HEK293"
reported_value = "> 80%"

[[record]]
compound = "CCOC(=O)C1=C(C)NC(=O)NC1c1cc(C)c(O)c(/C=N/NC(N)=S)c1 (stereo unspecified)"
tested_on = "HEK293"
reported_value = "> 80%"

